Target: A/USSR/90/77 (H1N1)
Conditions: remark: other sources report otherwise
pKd: −log10 of the molar value.

- BINDER: "HB80.3 ([change], [change], [change], [change], Delta54-95) (designed binder) MASTRGSGRPWGFSENLAFELALSFTNKDTPDRWAKVAQYVSGRTPEEVKKHYE"
  pKd: 8.00
